For each entry below, report its protein stability index value.
Assay: protein stability index of a GFP-peptide fusion (yeast GPS) (PSI 1-4); higher = more stable; sorted into four equal gates, so the index is relative within each strain
Details: pdr5∆
// print number alone

Please give the measured protein stability index for this sequence: NTKEEFAAAPNDTSSGT [SNF5] 3.06

Now try TVTLNKNREVVQVSKAG [RRP45] . 2.98

Now try IEITNSNDLCSQIFDQL [SRB8] . 2.96

Now try DEVNDRSDISDSEGGLF [PCI8] . 3.08

Now try FGSGTQNNNTLGGGGLF [YGR119C/NUP57] . 2.94

Now try NNSSSGMNNASAGLFGS [YGL172W/NUP49] . 3.08

Now try TDPKELYNNAHVYARDL [RPC40] . 2.94

* * *

Assay: protein stability index of a GFP-peptide fusion (yeast GPS) (PSI 1-4); higher = more stable; sorted into four equal gates, so the index is relative within each strain
Conditions: ubr1∆
outcomeMeasure: protein stability index
// print number alone

Please give the measured protein stability index for this sequence: SAVKPRPLKLERGFACI [FAS1] 2.42

Now try RCYQPFELFDNKTAHLS [SNU114] . 2.24

Now try MSDHSLDKLNCAINSKS [RRP6] . 2.83

Now try VIYRNSLYKVSFLEKPK [YMR129W/POM152] . 2.43

Now try MIVYYKDAISFIKEIHK [YCS4] . 2.26

Now try YQKNKPYPKSRYNRAVP [RPL10] . 2.85

Now try SSLKESSPDTMKLTDLL [SNF12] . 3.1

Now try DANLNDLPETGFFENIE [IRR1] . 3.27

Now try RKFHELNDHIDDFEVNV [GRR1] . 3.08

Now try EEKPDVTYSDVGGCKDQ [RPT1] . 3.41

Now try KLKECPFDMGGYFIING [RPB2] . 3.07

Now try KSAVSHAPAYHRSKKDQ [IRR1] . 3.1

Now try NQVGTDELILPLPSHAL [YDL116W/NUP84] . 3.06

Now try KFGLLLQVSAQERKDFL [ECM29] . 1.57

Now try WVYKTKGDGMTSAVASI [RPN1] . 2.97

Now try LQRQQRKSKLNLDNLQK [POP4] . 2.92

Now try QMEDMEESINEFKSIEI [SMC4] . 2.93

Now try TANTGTIGKRRTTTNTT [TAF14] . 3.19

* * *

Assay: protein stability index of a GFP-peptide fusion (yeast GPS) (PSI 1-4); higher = more stable; sorted into four equal gates, so the index is relative within each strain
Conditions: doa10∆
outcomeMeasure: protein stability index
// print number alone

Please give the measured protein stability index for this sequence: IMGFISYHNGNLKGRPY [FAS2] 3

Now try KLLAISKFNNADDVFTG [RPC31] . 3.03

Now try RSMSGQPPTNVQPTIGQ [SNF5] . 2.74

Now try RIDAFNALEHKYFTESD [SSN3] . 2.72

Now try QYEHLIKGIREYEEWQK [YDL116W/NUP84] . 3.11

Now try LEYMNTARINNRRLFKK [RRI2] . 2.5

Now try AKGFYHTPMVNFESISA [SRB8] . 2.16

Now try ENDTNMNETLNLKVELK [SMC4] . 3.43

Now try FAAIPEQGIELEHIDSK [FAS2] . 3.17

Now try TQAAEFLSPYISTHLKT [IRR1] . 1.96

Now try LSHENNVMLEKIKDNKE [RPT5] . 2.49

Now try VYEYVIASTLGPSAMRL [RPC82] . 2.38

Now try PNIADYITAKNNVVINF [PRP8] . 2.11

Now try KDIIDPKLTSIFERMIE [RPN2] . 2.68

Now try LKYSKRRSLKKQGRIKN [CSN12] . 3.01

Now try PYMNHKNTSSMDFLNSM [GAL11] . 1.87

Now try TDVKLTLPQPRLNKLNS [SMD1] . 2.73

Now try GAVGLKDLTLCRYSCLA [YCS4] . 2.4

Now try IECFKPGDIVRAQVLSL [CSL4] . 2.25

Now try QLQKILESLKPIDDTMT [MTW1] . 2.73

Now try INNPVNLTIHFGGEKGK [FAS1] . 2.97

Now try LAKPVFHVGFIAKIKKV [RPO21] . 1.21

Now try VMDTIQEQITLYDHWDK [SSN8] . 3.14

Now try TTVSNDLENSPLKTELE [SSN2] . 3.05

Now try KASTISRGAVSGQKAGL [RPL2A] . 2.46

Now try QMEDMEESINEFKSIEI [SMC4] . 3.28

Now try IIVENSGTSGDEDVDVL [RPN2] . 3.3

Now try DRMDVDEDESQNIAQSS [HRT1] . 2.37

Now try TVIEGVKEESQPDENTK [SWI3] . 3.13

Now try DISGTMSGGGNHVAKGL [SMC4] . 3.19

Now try NVFNDTPRGNHWMGSSV [YMR129W/POM152] . 3.39

Now try LSESPVDFEKFETFLVD [SIN4] . 3.03

Now try YVLYAKIVVLSRTGPVF [RRP43] . 1.29

Now try LKKLKAMNDACYEKVLE [BRR2] . 3.18

Now try ICNPVHKHREARGLTAT [RPL15B] . 2.81

Now try CFCEDHCDKCSVVLTLQ [RPB3] . 3.12

Now try EDAFNFWFDKLVTKILP [YCG1] . 1.94

Now try ALLKLSVKLKQKRLEAG [DIS3] . 1.11

Now try LASKIKQYERLRFYKDT [RRI1] . 2.63

Now try NSTLKKVESQETLNDTI [YCS4] . 2.12

Now try PVEKVKEHDEIEEQGDA [DPB4] . 3.19

Now try KLLAKELEEQESESERK [SMC2] . 2.71

Now try LISRLCPNSTGAELRSV [RPT1] . 1.85

Now try KQTGRDQMVVGWYHSHP [RPN11] . 2.4

Now try LQCPMLYVESTGKFVLQ [CSN12] . 2.34

Now try NFETEWNLQTLAADDAF [RPB11] . 2.68

* * *

For each entry below, report its protein stability index value.
Assay: protein stability index of a GFP-peptide fusion (yeast GPS) (PSI 1-4); higher = more stable; sorted into four equal gates, so the index is relative within each strain
Details: san1∆
// print number alone

Please give the measured protein stability index for this sequence: RADTMDFKTDVDEPMTS [YJL039C/NUP192] 3.25

Now try GAVGLKDLTLCRYSCLA [YCS4] . 1.94

Now try LTEQIRELREVIELPLK [RPT4] . 3.12

Now try LSRGDDEVTIRRTVGLK [SMC3] . 2.77

Now try KFSERRKALPKEPKKLL [DSN1] . 2.52

Now try TANTGTIGKRRTTTNTT [TAF14] . 3.21

Now try NVRSSVLQKVIEWAEHH [SKP1] . 2.4

Now try LEYMNTARINNRRLFKK [RRI2] . 2.3

Now try IYKSIFNVVDVGVDQLS [YJL039C/NUP192] . 3.05

Now try RILQQLKLDKIIHVLTT [RGR1] . 1.72

Now try NTNNINNSSSGMNNASA [YGL172W/NUP49] . 3.25

Now try APPQRPRFNRDNKVSPA [RPS26B] . 3.09

Now try DSESDSDSETNHKSKDN [SKP1] . 3

Now try VTPEDVMTISSLEQRTL [RPC82] . 3.06

Now try IATGCKDGRIRIFKITE [YGL100W/SEH1] . 2.21

Now try HRASPADVSIKSILQEI [POP5] . 2.95

Now try EAASSNKSFIVDQGQIY [ITC1] . 2.89

Now try QFNKILPEPTEGFAADD [FAS1] . 2.91

Now try VFKTHSYRGVDLEKLLE [RPS15] . 3.14

Now try MQVLNTKSETKQENETM [MED11] . 1.41

Now try CILYDADESKMAKLNEC [RET1] . 2.32

Now try ARDLLTRDEKDPKRLFE [RPS9A] . 3.14

Now try REILCYSKDAKEIYYTP [FAS2] . 2.7

Now try TLLNFVSNNVLRRLEIL [ECM29] . 2.28

Now try CLDQMTEQFCATLNYID [SRB7] . 2.99

Now try PDSNHLSSETGIKLALD [SRB4] . 3.33

Now try NDLGKFIPNKQLNCVID [RPN7] . 2.77

Now try ELIKNYITARIMAKRPF [FAS1] . 3.03

Now try NFLIKLSELSPGIMLRQ [YCS4] . 3.1

Now try LESINEGNQIIVFVHSR [BRR2] . 1.62

Now try EPTVRIQAVFCLTKFQD [YCG1] . 2.28

Now try QRLIFAGKQLEDGRTLS [RPS31] . 3.38

Now try KRQAYAVSEKAGHQTSA [RPL4A] . 1.65

Now try GHVGSVQISNIPDIGDL [PRP8] . 2.79

Now try EDGTIESYNQNDWKLET [SIN4] . 3.22

Now try STTAALQSISSLTISLY [RPN7] . 1.95

Now try TDLGKDIPFFPSSEKPN [SSN2] . 2.57

Now try KTPVFTTGGDYILSLVS [YMR129W/POM152] . 1.74
